All figures here come from patent US12583839B2.

Each entry below carries its reported pEC50.
tested_on: PD-1/PD-L1 (Homo sapiens)
Construct: 60535 (PD-1/NFAT-Reporter-Jurkat); Jurkat cells expressing PD-1
assay_text: Detection of biological activity of PD-1/PD-L1 signaling inhibition at the cellular level (NFAT luciferase reporter, PD-1/NFAT-Reporter-Jurkat cells co-cultured with TCR activator/PD-L1-CHO cells)
stated_conditions: PD-1/NFAT-Reporter-Jurkat + TCR activator/PD-L1-CHO co-culture, 6 hours; Atezolizumab as positive control
Recall that pEC50 is obtained by taking minus log10 of the concentration measured in molar.

COc1cc(-c2cccc(-c3cccc4c3cnn4Cc3cc(OC)c(CN(C)C4CCC(C(=O)O)CC4)cc3S(C)(=O)=O)c2Cl)ccc1CNC[C@@H]1CCC(=O)N1 (stereo partly drawn) ... 6.68
COc1cc(Cn2ncc3c(-c4cccc(-c5cc(F)c(CNC[C@@H]6CCC(=O)N6)c(OC)c5)c4Cl)cccc32)c(C#N)cc1CN(C)[C@H]1CC[C@H](CC(=O)O)CC1 ... 7.40

Could you now look at the following compound, please?
Q: Which pEC50 reading was recorded for the compound COc1cc(-c2cccc(-c3cccc4c3cnn4Cc3cc(OC)c(CN(C)[C@H]4CC[C@H](CC(=O)O)CC4)cc3Cl)c2Cl)ccc1CNC[C@@H]1CCC(=O)N1 ?
Result: 7.82

###

Reported pEC50 values follow for various compounds
tested_on: PD-1/PD-L1 (Homo sapiens, UniProt Q9NZQ7)
Construct: 60535 (PD-1/NFAT-Reporter-Jurkat); Jurkat cells expressing PD-1
Sequence (Q9NZQ7 19-290): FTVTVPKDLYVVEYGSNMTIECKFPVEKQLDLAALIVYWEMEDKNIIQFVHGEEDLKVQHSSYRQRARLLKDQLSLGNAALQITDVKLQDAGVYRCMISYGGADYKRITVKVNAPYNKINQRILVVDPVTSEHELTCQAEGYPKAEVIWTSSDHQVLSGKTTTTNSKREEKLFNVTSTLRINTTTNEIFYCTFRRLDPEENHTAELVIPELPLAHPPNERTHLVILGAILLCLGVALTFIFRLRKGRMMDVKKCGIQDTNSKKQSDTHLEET
assay_text: Detection of biological activity of PD-1/PD-L1 signaling inhibition at the cellular level (NFAT luciferase reporter, PD-1/NFAT-Reporter-Jurkat cells co-cultured with TCR activator/PD-L1-CHO cells)
stated_conditions: PD-1/NFAT-Reporter-Jurkat + TCR activator/PD-L1-CHO co-culture, 6 hours; Atezolizumab as positive control
Here pEC50 is given on a logarithmic scale as minus log10 of the concentration in mol/L.

COc1cc(Cn2ncc3c(-c4cccc(-c5cc(F)c(CNC[C@@H]6CCC(=O)N6)c(OC)c5)c4Cl)cccc32)c(C(F)(F)F)cc1CN(C)[C@H]1CC[C@H](C(=O)O)CC1 ... 7.47
CN(CCO)Cc1ccc(-c2cccc(-c3cccc4c3cnn4Cc3cc(OCc4cncc(C#N)c4)c(CN[C@@H](CO)C(=O)O)cc3Cl)c2Cl)cc1 ... 6.69
COc1cc(Cn2ncc3c(-c4cccc(-c5ccc(CNC[C@@H]6CCC(=O)N6)cc5)c4Cl)cccc32)c(Cl)cc1CN(C)CC1CCC(C(=O)O)CC1 (stereo partly drawn) ... 6.30
COc1cc(-c2cccc(-c3cccc4c3cnn4Cc3nc(OC)c(CN(C)C45CCC(C(=O)O)(CC4)CC5)cc3Cl)c2Cl)cc(F)c1CNC[C@@H]1CCCC(=O)N1 ... 7.49
COc1cc(Cn2ncc3c(-c4cccc(-c5ccc(CNC[C@@H]6CCC(=O)N6)c(OC(F)(F)F)c5)c4Cl)cccc32)c(Cl)cc1CN1CC[C@@H](C(=O)O)C1 ... 6.16
COc1cc(Cn2ncc3c(-c4cccc(-c5ccc(CNC[C@@H]6CCC(=O)N6)cc5)c4Cl)cc(Cl)cc32)c(Cl)cc1CN[C@@H](CO)C(=O)O ... 6.27
COc1cc(Cn2ncc3c(-c4cccc(-c5cc(F)c(CNC[C@@H]6CCC(=O)N6)c(OC)c5)c4Cl)cccc32)c(C(F)(F)F)cc1CN(C)C12CCC(C(=O)O)(CC1)CC2 ... 7.52
N#Cc1cncc(COc2cc(Cn3ncc4c(-c5cccc(-c6ccc(CN7CCOCC7)cc6)c5Cl)cccc43)c(Cl)cc2CN[C@@H](CO)C(=O)O)c1 ... 6.40
N#Cc1cncc(COc2cc(Cn3ncc4c(-c5cccc(-c6ccc(CN7CC[C@@H](O)C7)cc6)c5Cl)cccc43)c(Cl)cc2CN[C@@H](CO)C(=O)O)c1 ... 7.08
COc1cc(-c2cccc(-c3cccc4c3cnn4Cc3cc(OC)c(CN(C)C4CCC(C(=O)O)CC4)cc3C#N)c2Cl)ccc1CNC[C@@H]1CCC(=O)N1 (stereo partly drawn) ... 7.70

Q: Looking for the measured pEC50 of N#Cc1cncc(COc2cc(Cn3ncc4c(-c5cccc(-c6ccc(CNCCO)cc6)c5Cl)cccc43)c(Cl)cc2CN[C@@H](CO)C(=O)O)c1 , can you help?
Result: 7.24

Q: Given the entry COc1cc(Cn2ncc3c(-c4cccc(-c5cc(OC)c(CNC[C@@H]6CCC(=O)N6)c(OC)c5)c4Cl)cccc32)c(Cl)cc1CN(C)CC1CCC(C(=O)O)CC1 (stereo partly drawn) , report its measured pEC50.
Result: 6.13

Q: Using the record for COc1cc(Cn2ncc3c(-c4cccc(-c5ccc(CN6CC[C@@H](C(=O)O)C6)cc5)c4Cl)cccc32)c(Cl)cc1CN1CC[C@@H](O)C1 , report its pEC50.
Result: 6.09

Q: Consider the compound COc1cc(-c2cccc(-c3cccc4c3cnn4Cc3cc(OC)c(CN4CC[C@@H](C(=O)O)C4)cc3Cl)c2Cl)ccc1CNCCO and give its measured pEC50.
Result: 7.10

###

tested_on: PD-1/PD-L1 (Homo sapiens)
Construct: 60535 (PD-1/NFAT-Reporter-Jurkat); Jurkat cells expressing PD-1
assay_text: Detection of biological activity of PD-1/PD-L1 signaling inhibition at the cellular level (NFAT luciferase reporter, PD-1/NFAT-Reporter-Jurkat cells co-cultured with TCR activator/PD-L1-CHO cells)
stated_conditions: PD-1/NFAT-Reporter-Jurkat + TCR activator/PD-L1-CHO co-culture, 6 hours; Atezolizumab as positive control
Attribute: EC50
# unit: nM | format: bare number

Recorded results for 3 compounds are shown here.
COc1cc(-c2cccc(-c3cccc4c3cnn4Cc3cc(OCC(N)=O)c(CN(C)C[C@H]4CC[C@H](C(=O)O)CC4)cc3Cl)c2Cl)ccc1CNC[C@@H]1CCC(=O)N1 ... 160
COc1nc(-c2cccc(-c3cccc4c3cnn4Cc3cc(OCc4cncc(C#N)c4)c(CNCCO)cc3Cl)c2Cl)ccc1CNC[C@@H]1CCC(=O)N1 ... 66
COc1cc(Cn2ncc3c(-c4cccc(-c5cc(F)c(CNC[C@@H]6CCC(=O)N6)c(OC)c5)c4Cl)cccc32)c(Cl)cc1CN(C)[C@H]1CC[C@H](O)CC1 ... 44

Next:
Q: // EC50 lookup, key: COc1cc(Cn2ncc3c(-c4cccc(-c5ccc(CN(C)C[C@@H]6CCC(=O)N6)c(OC)c5)c4Cl)cccc32)c(Cl)cc1CN(C)CC1CCC(C(=O)O)CC1 (stereo partly shown)
Result: 745
